- Test system: CCRIS mutagenicity, Ames/micronucleus/aberration tests
- TEST DETAILS: CCRIS mutagenicity studies
- CONDITIONS: Test System: AMES SALMONELLA TYPHIMURIUM; Strain/Indicator: TA98(1,8-DNP6); Metabolic Activation: NONE; Method: PREINCUBATION
Activity calls are given as the source filed them. The rule behind the calls is not given here.
Possible outcomes: active, inactive

>  <QUERY SMILES>
Nc1cc2nc3ccccc3nc2cc1N

>  <CATEGORY>
inactive

$$$$
>  <QUERY SMILES>
O=c1oc2ccc([N+](=O)[O-])c3ccc4cccc1c4c23

>  <CATEGORY>
active

$$$$
>  <QUERY SMILES>
O=C(O)/C=C/c1ccc([N+](=O)[O-])cc1

>  <CATEGORY>
active

$$$$
>  <QUERY SMILES>
O=c1oc2c([N+](=O)[O-])ccc3ccc4cccc1c4c32

>  <CATEGORY>
active

$$$$
>  <QUERY SMILES>
CC(=O)Nc1ccc(Oc2ccc(N(O)C=O)cc2)cc1

>  <CATEGORY>
active

$$$$
>  <QUERY SMILES>
Nc1cc2nc3ccccc3nc2cc1O

>  <CATEGORY>
inactive

$$$$

====

- Tested on: CCRIS mutagenicity, Ames/micronucleus/aberration tests
- TEST DETAILS: CCRIS mutagenicity studies
- CONDITIONS: Test System: AMES SALMONELLA TYPHIMURIUM; Strain/Indicator: TA98; Metabolic Activation: HAMSTER, LIVER, S-9, AROCLOR 1254; Method: PREINCUBATION
Calls of active or inactive are those of the source. The rule behind the calls is not given here.
Possible outcomes: active, inactive

>  <COMPOUND>
Clc1ccc(Cl)c(Cl)c1Cl

>  <TARGET>
CCRIS mutagenicity, Ames/micronucleus/aberration tests

>  <CATEGORY>
inactive

$$$$
>  <COMPOUND>
NS(=O)(=O)c1cc(C(=O)O)c(NCc2ccco2)cc1Cl

>  <TARGET>
CCRIS mutagenicity, Ames/micronucleus/aberration tests

>  <CATEGORY>
inactive

$$$$
>  <COMPOUND>
Oc1cc2c(cc1O)[C@@H]1c3ccc(O)c(O)c3OC[C@]1(O)C2

>  <TARGET>
CCRIS mutagenicity, Ames/micronucleus/aberration tests

>  <CATEGORY>
inactive

$$$$
>  <COMPOUND>
C(=C\c1ccccc1)/c1ccccc1

>  <TARGET>
CCRIS mutagenicity, Ames/micronucleus/aberration tests

>  <CATEGORY>
inactive

$$$$
>  <COMPOUND>
CCCCC(CC)COC(=O)c1ccc(N(C)N=O)cc1 (centres undefined)

>  <TARGET>
CCRIS mutagenicity, Ames/micronucleus/aberration tests

>  <CATEGORY>
inactive

$$$$
>  <COMPOUND>
Cc1cccc(OP(=O)(Oc2cccc(C)c2)Oc2cccc(C)c2)c1

>  <TARGET>
CCRIS mutagenicity, Ames/micronucleus/aberration tests

>  <CATEGORY>
inactive

$$$$
>  <COMPOUND>
O=C1CN(/N=C/c2ccc([N+](=O)[O-])o2)C(=O)N1

>  <TARGET>
CCRIS mutagenicity, Ames/micronucleus/aberration tests

>  <CATEGORY>
active

$$$$
>  <COMPOUND>
C[Si](C)(Cl)Cl

>  <TARGET>
CCRIS mutagenicity, Ames/micronucleus/aberration tests

>  <CATEGORY>
inactive

$$$$
>  <COMPOUND>
CC1CS1 (centres undefined)

>  <TARGET>
CCRIS mutagenicity, Ames/micronucleus/aberration tests

>  <CATEGORY>
inactive

$$$$
>  <COMPOUND>
O=CCC=O

>  <TARGET>
CCRIS mutagenicity, Ames/micronucleus/aberration tests

>  <CATEGORY>
inactive

$$$$
>  <COMPOUND>
NCC(=O)O

>  <TARGET>
CCRIS mutagenicity, Ames/micronucleus/aberration tests

>  <CATEGORY>
inactive

$$$$
>  <COMPOUND>
CCCCC1C(=O)N(c2ccccc2)N(c2ccccc2)C1=O

>  <TARGET>
CCRIS mutagenicity, Ames/micronucleus/aberration tests

>  <CATEGORY>
inactive

$$$$
>  <COMPOUND>
Cc1ncc[nH]1

>  <TARGET>
CCRIS mutagenicity, Ames/micronucleus/aberration tests

>  <CATEGORY>
inactive

$$$$
>  <COMPOUND>
Cc1cc(-c2ccc(N)c(C)c2)ccc1N

>  <TARGET>
CCRIS mutagenicity, Ames/micronucleus/aberration tests

>  <CATEGORY>
active

$$$$
>  <COMPOUND>
CC1(C)C(=O)N(Cl)C(=O)N1Cl

>  <TARGET>
CCRIS mutagenicity, Ames/micronucleus/aberration tests

>  <CATEGORY>
inactive

$$$$
>  <COMPOUND>
Brc1ccccc1

>  <TARGET>
CCRIS mutagenicity, Ames/micronucleus/aberration tests

>  <CATEGORY>
inactive

$$$$
>  <COMPOUND>
O=c1[nH]c(=O)[nH]c(=O)[nH]1

>  <TARGET>
CCRIS mutagenicity, Ames/micronucleus/aberration tests

>  <CATEGORY>
inactive

$$$$
>  <COMPOUND>
C=CCOCC1CO1 (centres undefined)

>  <TARGET>
CCRIS mutagenicity, Ames/micronucleus/aberration tests

>  <CATEGORY>
inactive

$$$$
>  <COMPOUND>
Clc1ccc(Cl)c(Cl)c1

>  <TARGET>
CCRIS mutagenicity, Ames/micronucleus/aberration tests

>  <CATEGORY>
inactive

$$$$
>  <COMPOUND>
NC(=O)N/N=C/c1ccc([N+](=O)[O-])o1

>  <TARGET>
CCRIS mutagenicity, Ames/micronucleus/aberration tests

>  <CATEGORY>
active

$$$$
>  <COMPOUND>
ClC(Cl)Br

>  <TARGET>
CCRIS mutagenicity, Ames/micronucleus/aberration tests

>  <CATEGORY>
inactive

$$$$
>  <COMPOUND>
C=C(C)C(=O)O

>  <TARGET>
CCRIS mutagenicity, Ames/micronucleus/aberration tests

>  <CATEGORY>
inactive

$$$$
>  <COMPOUND>
Oc1cc(Cl)cc(Cl)c1

>  <TARGET>
CCRIS mutagenicity, Ames/micronucleus/aberration tests

>  <CATEGORY>
inactive

$$$$
>  <COMPOUND>
COc1cc(CCCS(=O)(=O)O)ccc1O[C@H](Cc1cccc(OC)c1O)CS(=O)(=O)O

>  <TARGET>
CCRIS mutagenicity, Ames/micronucleus/aberration tests

>  <CATEGORY>
inactive

$$$$

====

- Test system: CCRIS mutagenicity, Ames/micronucleus/aberration tests
- TEST DETAILS: CCRIS mutagenicity studies
- CONDITIONS: Test System: E. COLI; Strain/Indicator: WP2 UVRA (PKM101); Metabolic Activation: NONE; Method: STANDARD PLATE
The source made the active and inactive calls. The rule behind the calls is not given here.
Possible outcomes: true (1) (active), false (0) (inactive)

>  <QUERY SMILES>
CN(C)N

>  <TARGET>
CCRIS mutagenicity, Ames/micronucleus/aberration tests

>  <CATEGORY>
true (1)

$$$$
>  <QUERY SMILES>
COc1ccc(N)cc1

>  <TARGET>
CCRIS mutagenicity, Ames/micronucleus/aberration tests

>  <CATEGORY>
true (1)

$$$$
>  <QUERY SMILES>
[O]=[Cr](=[O])([OH])[O][Cr](=[O])(=[O])[OH]

>  <TARGET>
CCRIS mutagenicity, Ames/micronucleus/aberration tests

>  <CATEGORY>
true (1)

$$$$
>  <QUERY SMILES>
O=C1CN(/N=C/c2ccc([N+](=O)[O-])o2)C(=O)N1

>  <TARGET>
CCRIS mutagenicity, Ames/micronucleus/aberration tests

>  <CATEGORY>
true (1)

$$$$
>  <QUERY SMILES>
CC1=CC(=O)c2c(O)cccc2C1=O

>  <TARGET>
CCRIS mutagenicity, Ames/micronucleus/aberration tests

>  <CATEGORY>
false (0)

$$$$

====

- System: CCRIS mutagenicity, Ames/micronucleus/aberration tests
- TEST DETAILS: CCRIS mutagenicity studies
- CONDITIONS: End Point: IN VITRO CHROMOSOMAL ABERRATIONS; Test System: CHO CELLS; Metabolic Activation: NONE
Calls of active or inactive are those of the source. No rule for the calls is given here.
Possible outcomes: yes (active), no (inactive)

>  <QUERY SMILES>
NC(=O)N/N=C/c1ccc([N+](=O)[O-])o1

>  <CATEGORY>
yes

$$$$
>  <QUERY SMILES>
O=C1CN(/N=C/c2ccc([N+](=O)[O-])o2)C(=O)N1

>  <CATEGORY>
yes

$$$$
>  <QUERY SMILES>
ClC(Cl)Br

>  <CATEGORY>
no

$$$$
>  <QUERY SMILES>
COc1cccc2c1cc([N+](=O)[O-])c1c(C(=O)O)cc3c(c12)OCO3

>  <CATEGORY>
yes

$$$$
>  <QUERY SMILES>
COc1cc(/C=C/C(=O)CC(=O)/C=C/c2ccc(O)c(OC)c2)ccc1O

>  <CATEGORY>
yes

$$$$
>  <QUERY SMILES>
CCc1cc(C(N)=S)ccn1

>  <CATEGORY>
no

$$$$
>  <QUERY SMILES>
O=S(=O)(O)c1cc(S(=O)(=O)O)c2c(N=Nc3ccccc3)c(O)ccc2c1

>  <CATEGORY>
no

$$$$
